# target-under-test: FTase (protein farnesyltransferase) (UniProt P49354)
pKd: −log10 of the molar value. No end group written: not given here. *: point of attachment. Dansyl = CN(C)c1cccc2c(S(=O)(=O)*)cccc12
Think of 8 as a floor: if pKd stands on it or above, it is condition met; beneath it, condition not met.

Ask: Entry Dansyl-TKCNIM [dansyl-TKCNIM] : is its pKd no less than 8?
Result: condition met

Ask: Entry Dansyl-TKCTII [dansyl-TKCTII] : is its pKd no less than 8?
Result: condition met

Ask: Entry Dansyl-TKCTLM [dansyl-TKCTLM] : is its pKd no less than 8?
Result: condition met

Ask: Entry Dansyl-TKCFLS [dansyl-TKCFLS] : is its pKd no less than 8?
Result: condition not met

Ask: Entry Dansyl-TKCCIL (cysteine pairing not given here) [dansyl-TKCCIL] : is its pKd no less than 8?
Result: condition not met

Ask: Entry Dansyl-TKCIVA [dansyl-TKCIVA] : is its pKd no less than 8?
Result: condition met

Ask: Entry Dansyl-TKCLTS [dansyl-TKCLTS] : is its pKd no less than 8?
Result: condition met
